The following compounds are listed with their measured melting point values.

| Compound | Observed property | Result |
| --- | --- | --- |
| CN(C)C=NS(=O)(=O)c1ccc(Br)cc1 | melting point | 141 to 143 °C |
| CCCC(NOCC)=C1C(=O)CC(c2cc3ccccc3[nH]c2=O)CC1=O (stereo not given) | melting point | 155 to 157 °C |
| CC(=O)OCc1cc2c(C(O)CN(Cc3ccccc3)C(C)(C)C)ccc(OCc3ccccc3)c2[nH]1 (stereo not given) | melting point | 133 to 134 °C |
| COC(=O)CN(C)C(=S)c1cccc2c(SC(F)(F)F)c(OC)ccc12 | melting point | 121 to 123 °C |
| COC(=O)c1ccoc1CCNC(=O)C[C@H]1O[C@H](c2cccc(OC)c2OC)c2cc(Cl)ccc2N(CC(C)(C)CO)C1=O | melting point | 81 to 83 °C |

Lookup result for N#Cc1ccccc1NC(=O)c1snnc1C1CC1 ; measured melting point: 124 °C

Given item CCOC(=O)COc1cc(S(C)(=O)=O)ccc1C(=O)NCc1ccc(Br)cc1F , the value recorded as its melting point is 140 to 143 °C

Record summary for Cc1cc2c(s1)Oc1cccc(C)c1NC2=O : reported melting point = 198 to 200 °C

melting point measured on COc1ccc(C=O)c(Cl)c1OC(C)=O = 48 to 50 °C

O=C1CCCCCCCCCCC(O)CCCO1 (stereo not given) has a reported melting point of 59 to 61 °C
